- method.description: MTT assay
- Type: cell-based, human
- condition.details: human, MCF-7 breast cancer cells, % Viability, MCF-7, 100 μM
readout.label: viability at 24 h, 100 µM (%)
Quick reminder: number only, in %, skip the unit.

Please review the following examples before continuing.
compound	data.value
Cc1ccc(CNC(=O)c2ccc3ncccc3c2)cc1	57.8
O=C(Nc1ccc(F)cc1F)c1ccc2ncccc2c1	85.4
O=C(NCc1ccc(F)cc1)c1ccc2ncccc2c1	74.9
COc1ccc(CNC(=O)c2ccc3ncccc3c2)c(OC)c1	58.5
O=C(Nc1c(F)cccc1F)c1ccc2ncccc2c1	52

Sample O=C(Nc1ccccn1)c1ccc2ncccc2c1 [Compound 4g, N-(pyridin-2-yl)quinoline-6-carboxamide] ; viability at 24 h, 100 µM observed: 52.6
